experiment: yeast growth modulation, basal conditions, primary screen, YJM789 clinical isolate, OD600, 24 h (AID 1089);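 note: growth of clinical yeast isolate S. cerevisiae YJM 789 seeded 1000 cells per well; test concentration not given here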; conditions: S. cerevisiae YJM789 growth, called active from +8 up or from −8 down
Activity calls are given as the source filed them.
// allowed return values: active, inactive

Worked examples, 3 molecules total:
O=C(O)C1=CC[C@H]2C(=O)N(c3ccccc3)C(=O)[C@@H]12 = inactive
C=CCNC(=O)[C@@H]1[C@H]2C(=O)O[C@H](c3ccccc3)[C@H](c3ccccc3)N2[C@H](c2ccc(O)cc2)[C@@]12C(=O)Nc1ccc(C#CC3=CCCCC3)cc12 = inactive
COC(=O)[C@@]1(Cc2ccc(F)cc2)[C@H]2c3cc(C(=O)N(C)C)n(Cc4ccsc4Br)c3C[C@H]2CN1C(=O)c1ccccc1 = inactive

Prompt: Kindly provide the recorded test outcome for the following molecule: `CO[C@H]1O[C@H](CO)[C@@H](OC(=O)Nc2ccccc2)[C@@H]2OC(=O)[C@@H](Cc3ccccc3)C/C=C/C[C@H](Cc3ccccc3)C(=O)O[C@@H]12`
Completion: inactive

Prompt: Kindly provide the recorded test outcome for the following molecule: `COc1ccc(CCNC(=O)[C@@]2(c3ccc([N+](=O)[O-])cc3)CC(=O)N(C3CCCCC3)[C@@H]2c2ccc(CO)cc2I)cc1`
Completion: inactive

Prompt: Kindly provide the recorded test outcome for the following molecule: [N-]=[N+]=Nc1ccccc1C[C@@]1(C(=O)NCC(O)CO)N=C(c2ccc(OCCCO)cc2)O[C@@H]1c1ccccc1N=[N+]=[N-] (stereo partly specified)
Completion: inactive

Prompt: Kindly provide the recorded test outcome for the following molecule: `C[C@]1(C(=O)NC2CC2)c2ccccc2C(=O)N(Cc2cc(F)cc(C(F)(F)F)c2)[C@H]1c1ccc(CO)cc1`
Completion: inactive

Prompt: Kindly provide the recorded test outcome for the following molecule: `O=C/C=C/c1ccc(-c2ccccc2)cc1`
Completion: active

Prompt: Kindly provide the recorded test outcome for the following molecule: CCCCN1CC=CC23O[C@@H]4/C=C\CCCOC(=O)C4[C@H]2C(=O)N(CCCCCCO)[C@@H]3C1=O (stereo partly specified)
Completion: inactive

Prompt: Kindly provide the recorded test outcome for the following molecule: `O=C1c2ccccc2[C@](Cc2ccccc2I)(C(=O)NCCN2CCOCC2)[C@H](c2ccc(CO)cc2)N1Cc1ccccc1C(F)(F)F`
Completion: inactive

Prompt: Kindly provide the recorded test outcome for the following molecule: `COc1ccc([Si](C)(C)[C@@H]2[C@@H](CC(=O)N3CCC[C@H]3CO)O[C@]3(C(=O)N(Cc4cccc(N5C(=O)c6cccc7cccc5c67)c4)c4ccccc43)[C@H]2C)cc1`
Completion: inactive

Prompt: Kindly provide the recorded test outcome for the following molecule: `O=C(NCCN1CCOCC1)[C@@H]1c2ccccc2C(=O)N(CC23CC4CC(CC(C4)C2)C3)[C@H]1c1ccc(CO)cc1`
Completion: inactive

---

assay: compound binding in COS7 lysate, probe aLAP1, primary screen, cell lysate, small-molecule microarray (AID 1124); conditions: probe aLAP1, fluorescence, higher = more signal;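 note: lysate comes from COS7 cells expressing LAP1 and is applied at 0.3 µg/mL; score merges spot fluorescence near 667 nm with signal-to-noise over triplicate slides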
Readout Type: composite z-score

Completed entries (count: 2):
COc1ccc(CCNC(=O)[C@@]2(C)c3ccccc3C(=O)N(Cc3ccc(OC(F)(F)F)cc3)[C@H]2c2ccc(CO)cc2)cc1 = 0.687
CC(C)Cc1ccc(CN2CC[C@@H](NC(=O)c3ccccc3)C2)cc1 = -0.0172

Below are some compounds; for each one, tell me its composite z-score.
1. COC(=O)C(CC#Cc1ccc2c(c1)[C@]1(C(=O)N2)[C@H](c2ccc(OCCO)cc2)N2[C@H](c3ccccc3)[C@H](c3ccccc3)OC(=O)[C@H]2[C@@H]1C(N)=O)C(=O)OC
2. COCCCNC(=O)[C@@]1(c2ccc([N+](=O)[O-])cc2)CC(=O)N(C2CCCCC2)[C@@H]1c1ccc(CO)cc1I
3. C=C[C@H](OC)[C@@H](O)c1ccc(OC)c(O)c1
4. CCOC(=O)C[C@H]1[C@H](OC(=O)c2ccc(-c3ccccc3)cc2)[C@@H](NC(=O)C2CCCCC2)c2cc(OCCCO)ccc2N1C(=O)Cc1ccc(OC)cc1

Completion:
[0.431, 0.426, -0.0037, 0.652]

Entry O=C1C2C=CC(C(O)C(c3ccccc3)c3ccccc3)N(Nc3ccccc3F)C2C(=O)N1c1ccccc1 (configuration not stated) , composite z-score reported as 1.02

---

experiment: PSAC antagonists in infected red cells, primary screen, cell-based, P. falciparum Indochina, OD700, 1 h (AID 1154); conditions: P. falciparum Indochina infected RBC osmotic lysis, higher = more signal, called active from +8 up or from −8 down
Active and inactive are the calls of the source.
Readout Type: z-score

Completed entries (count: 5):
C=CC[C@]1(C(=O)NCC(O)CO)N=C(c2ccc(OCCCO)cc2)O[C@H]1c1ccccc1CN=[N+]=[N-] (some centres undefined) = 15.7 (active)
COc1cc2c(cc1O)C(C)N(Cc1sc3ccccc3c1Cl)CC2 (centres undefined) = 4.05 (inactive)
O=C1O[C@@H](c2ccccc2)[C@@H](c2ccccc2)N2[C@@H](c3ccc(OCCO)cc3)[C@]3(C(=O)Nc4ccc(C#CC5=CCCCC5)cc43)[C@@H](C(=O)Nc3nc4ccccc4s3)[C@H]12 = 1.88 (inactive)
C=CCNC(=O)[C@H]1[C@@H]2C(=O)O[C@@H](c3ccccc3)[C@@H](c3ccccc3)N2[C@@H](c2ccc(O)cc2)[C@]12C(=O)Nc1ccccc12 = 2.59 (inactive)
CN1C(=O)C2C(C1=O)C1C=C(CCCO)C2C(C2CC2)N1C (centres undefined) = -0.452 (inactive)

Below are some molecules; for each one, tell me its z-score.
1. Cc1ccc(S[C@]2(C(=O)NCc3ccccc3)CC(=O)N(Cc3ccccc3Cl)[C@@H]2c2ccc(CO)cc2)cc1
2. COCCCNC(=O)[C@@]1(c2ccc([N+](=O)[O-])cc2)CC(=O)N(C2CCCCC2)[C@@H]1c1ccc(CO)cc1I
3. C=CCNC(=O)[C@@H]1[C@H]2C(=O)O[C@H](c3ccccc3)[C@H](c3ccccc3)N2[C@H](c2ccc(OCCO)cc2)[C@@]12C(=O)Nc1ccc(C#CCNC(N)=O)cc12
4. [N-]=[N+]=NCc1ccccc1C[C@@]1(C(N)=O)N=C(c2ccc(OCCCO)cc2)O[C@@H]1c1ccccc1N=[N+]=[N-]
5. CCCCN1CC=CC23O[C@@H]4/C=C\CCC(C)OC(=O)C4[C@H]2C(=O)N(CCO)[C@@H]3C1=O (some centres undefined)
6. CN1C(=O)C2C=CC(C(O)c3ccc(I)cc3)N(N(c3ccccc3)c3ccccc3)C2C1=O (centres undefined)
7. COC(=O)C1(CC(C)C)C=C2C(=C(C)C(=O)C2C)CN1 (centres undefined)
8. COCCOC(=O)N1C(=O)[C@@]2(c3cc(C#CCNC(N)=O)ccc31)[C@H](C(=O)Nc1nc3ccccc3s1)[C@H]1C(=O)O[C@H](c3ccccc3)[C@H](c3ccccc3)N1[C@@H]2c1ccc(O)cc1

Completion:
1: 3.22 (inactive); 2: 12.6 (active); 3: 2.55 (inactive); 4: 32.4 (active); 5: 2.6 (inactive); 6: 3.99 (inactive); 7: 0.71 (inactive); 8: 1.1 (inactive)

Below are some molecules; for each one, tell me its z-score.
1. C=CCOC(=O)[C@H]1[C@@H]2C(=O)O[C@@H](c3ccccc3)[C@@H](c3ccccc3)N2[C@@H](c2ccc(OCCOC(=O)[C@H]3C[C@H]4C(=O)NCC(=O)N4[C@H]3c3ccc(O)cc3)cc2)[C@]12C(=O)Nc1ccccc12
2. COC(=O)C(CC#Cc1ccc2c(c1)[C@]1(C(=O)N2)[C@H](c2ccccc2OCCO)N2[C@H](c3ccccc3)[C@H](c3ccccc3)OC(=O)[C@H]2[C@@H]1C(=O)N1CCN(c2ncccn2)CC1)C(=O)OC
3. COc1cccc(C)c1NC(=O)O[C@H]1[C@H](OC(=O)Nc2ccccc2)[C@@H](OC(=O)Nc2ccccc2)[C@@H](OC)O[C@@H]1CO

Completion:
1: 2.42 (inactive); 2: 3.02 (inactive); 3: 3.02 (inactive)

Below are some molecules; for each one, tell me its z-score.
1. C=C(C)C1CN([C@H](CO)c2ccccc2)C(=O)/C1=C\c1ccccc1 (some centres undefined)
2. COc1cc(CO)cc(I)c1O[C@H]1C=C(C(=O)NCCO)C[C@@H](N(CCN2CCOCC2)C(=O)C2CCCO2)[C@@H]1O (some centres undefined)
3. Cc1ccc(S[C@]2(C(=O)NCc3ccccc3)CC(=O)N(Cc3ccccc3C(F)(F)F)[C@@H]2c2ccc(CO)cc2I)cc1
4. O=C1NC(=O)C2C1C=CC(C(O)C1CCCCC1)N2Nc1ccccn1 (centres undefined)
5. C=CCN1C(=O)[C@@]2(O[C@@H](CCO)[C@H]([Si](C)(C)c3ccc(OC)cc3)[C@H]2C)c2cc(N3CCCCC3=O)ccc21
6. [N-]=[N+]=Nc1ccccc1C[C@@]1(C(=O)NCC(O)CO)N=C(c2ccc(OCCCO)cc2)O[C@@H]1c1ccccc1N=[N+]=[N-] (some centres undefined)
7. C=C(C(=O)CC[C@@H](OC(=O)c1ccccc1-c1ccccc1C(=O)O)c1ccc(OCCO)cc1)C(C)C
8. COc1ccc(C(=O)Nc2cccc(CN3C(=O)[C@]4(O[C@H](CC(=O)N(CCO)Cc5ccccc5)[C@@H]([Si](C)(C)c5ccc(OC)cc5)[C@@H]4C)c4ccccc43)c2)cc1

Completion:
1: -0.0012 (inactive); 2: 0.961 (inactive); 3: 5.8 (inactive); 4: 0.188 (inactive); 5: 23.8 (active); 6: 30.3 (active); 7: 13.6 (active); 8: 4.41 (inactive)

The measured values listed here are drawn from PubChem BioAssay.
